subject_of_test: GPIIb/IIIa (Homo sapiens, UniProt P05106+P08514)
Sequence (P08514 32-887 limits assumed): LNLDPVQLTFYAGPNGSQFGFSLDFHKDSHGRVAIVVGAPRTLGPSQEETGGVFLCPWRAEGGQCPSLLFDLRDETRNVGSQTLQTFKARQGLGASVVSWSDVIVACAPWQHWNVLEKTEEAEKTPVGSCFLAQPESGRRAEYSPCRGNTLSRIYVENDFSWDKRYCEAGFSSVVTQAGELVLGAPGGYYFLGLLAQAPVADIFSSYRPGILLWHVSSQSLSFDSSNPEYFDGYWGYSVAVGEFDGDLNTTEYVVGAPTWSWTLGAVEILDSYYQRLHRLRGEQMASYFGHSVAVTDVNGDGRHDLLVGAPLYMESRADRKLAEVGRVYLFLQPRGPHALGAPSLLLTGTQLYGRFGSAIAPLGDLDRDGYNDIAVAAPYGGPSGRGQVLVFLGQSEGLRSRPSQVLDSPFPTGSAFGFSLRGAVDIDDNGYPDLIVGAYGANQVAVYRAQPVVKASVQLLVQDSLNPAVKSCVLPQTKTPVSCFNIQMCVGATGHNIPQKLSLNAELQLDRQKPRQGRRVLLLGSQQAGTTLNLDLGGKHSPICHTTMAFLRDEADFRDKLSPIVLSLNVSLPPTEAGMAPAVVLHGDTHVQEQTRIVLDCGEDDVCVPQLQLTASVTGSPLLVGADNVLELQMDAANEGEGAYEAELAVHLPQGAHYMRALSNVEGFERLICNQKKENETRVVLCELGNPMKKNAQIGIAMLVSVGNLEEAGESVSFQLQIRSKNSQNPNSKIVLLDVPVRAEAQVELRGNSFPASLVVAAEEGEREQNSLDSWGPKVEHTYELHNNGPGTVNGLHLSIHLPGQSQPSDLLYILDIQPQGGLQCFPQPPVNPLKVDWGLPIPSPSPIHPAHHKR
Sequence (P08514 891-1039 limits assumed): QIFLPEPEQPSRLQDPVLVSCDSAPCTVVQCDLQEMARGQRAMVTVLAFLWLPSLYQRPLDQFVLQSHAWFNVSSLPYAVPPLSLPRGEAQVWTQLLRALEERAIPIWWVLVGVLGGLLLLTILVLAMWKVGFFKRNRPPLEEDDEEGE
Sequence (P05106 27-788): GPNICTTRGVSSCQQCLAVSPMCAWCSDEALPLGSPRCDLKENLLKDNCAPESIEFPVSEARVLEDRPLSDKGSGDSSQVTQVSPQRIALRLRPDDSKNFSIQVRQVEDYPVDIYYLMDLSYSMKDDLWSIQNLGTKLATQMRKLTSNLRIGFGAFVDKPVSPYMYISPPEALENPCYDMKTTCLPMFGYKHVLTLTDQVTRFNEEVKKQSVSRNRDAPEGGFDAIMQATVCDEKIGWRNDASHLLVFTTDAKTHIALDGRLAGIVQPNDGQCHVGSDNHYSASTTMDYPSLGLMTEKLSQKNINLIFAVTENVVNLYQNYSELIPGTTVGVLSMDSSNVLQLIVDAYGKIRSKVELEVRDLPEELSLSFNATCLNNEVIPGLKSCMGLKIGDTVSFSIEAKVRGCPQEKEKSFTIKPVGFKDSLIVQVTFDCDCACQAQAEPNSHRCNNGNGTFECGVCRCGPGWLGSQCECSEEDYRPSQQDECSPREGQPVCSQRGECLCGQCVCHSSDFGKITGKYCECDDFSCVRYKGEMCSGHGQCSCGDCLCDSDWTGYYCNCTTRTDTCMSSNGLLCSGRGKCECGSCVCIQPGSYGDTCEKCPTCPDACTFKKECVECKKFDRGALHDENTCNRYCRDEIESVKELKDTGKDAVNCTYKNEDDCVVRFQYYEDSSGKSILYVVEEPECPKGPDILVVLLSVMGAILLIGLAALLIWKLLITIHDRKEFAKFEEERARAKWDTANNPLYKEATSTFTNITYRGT
method_notes: In vitro solid phase purified glycoprotein IIb/IIIa binding assay (fibrinogen binding)
Binary label based on IC50 with cut-off 1 nM: below gives class 1, not below gives class 0.

Take a look at these entries with their results.
{"compound": "O=C(NC(CNC(=O)C1CCCn2c(C(F)=CC3CCNCC3)nnc21)C(=O)O)OCc1ccccc1 (centres unmarked) [Compound 9]", "label_value": "class 0"}
{"compound": "O=C(Cc1cccnc1)N[C@@H](CNC(=O)C1CCCn2c(/C=C/C3CCNCC3)nnc21)C(=O)O (some centres unmarked) [Compound 15]", "label_value": "class 0"}
{"compound": "Cc1noc(C)c1S(=O)(=O)N[C@@H](CNC(=O)C1CCCn2c(/C=C/C3CCNCC3)nnc21)C(=O)O (some centres unmarked) [Compound 11]", "label_value": "class 0"}
{"compound": "O=C(N[C@@H](CNC(=O)C1CCCn2c(CCC3CCNCC3)nnc21)C(=O)O)OCc1ccccc1 (some centres unmarked) [Compound 3]", "label_value": "class 1"}
{"compound": "CCN(CC)C(=O)COC(=O)[C@H](CNC(=O)C1CCCn2c(CCC3CCNCC3)nnc21)NC(=O)OCc1ccccc1 (some centres unmarked) [Compound 6]", "label_value": "class 0"}

## Task Take the compound CC(C)COC(=O)N[C@@H](CNC(=O)C1CCCn2c(/C=C/C3CCNCC3)nnc21)C(=O)O (some centres unmarked) [Compound 16] and say whether its IC50 is less than 1 nM.
## Result class 1

## Task Take the compound O=C(O)CCNC(=O)C1CCCn2c(CCC3CCNCC3)nnc21 (centres unmarked) [Compound 2] and say whether its IC50 is less than 1 nM.
## Result class 0

## Task Take the compound O=C(O)C[C@H](NC(=O)C1CCCn2c(CCC3CCNCC3)nnc21)c1cccnc1 (some centres unmarked) [Compound 1] and say whether its IC50 is less than 1 nM.
## Result class 1

Reference source for all entries: patent US6303625A
